Property Measured: melting point

Worked examples, 5 compounds total:
{"Structure Smiles": "Cc1cc(OCCN2CCN(c3ccccc3C#N)CC2)c2c(C)cc(=O)oc2c1", "melting point": "127 to 129 °C"}
{"Structure Smiles": "CC(=O)c1c(OCCN2CCN(c3cccc(Cl)c3Cl)CC2)ccc2c(C)cc(=O)oc12", "melting point": "159 to 161 °C"}
{"Structure Smiles": "CC(=O)c1c(OCCCCCN2CCN(c3cc(C)ccc3C)CC2)ccc2c(C)cc(=O)oc12", "melting point": "92 to 94 °C"}
{"Structure Smiles": "CC(=O)c1c(OCCCCCN2CCN(c3cccc(Br)c3)CC2)ccc2c(C)cc(=O)oc12", "melting point": "119 to 121 °C"}
{"Structure Smiles": "COc1cccc(N2CCN(CCOc3c(C(C)=O)c(C)cc4oc(=O)cc(C)c34)CC2)c1", "melting point": "75 to 76 °C"}

Field: melting point. Fill in for each record below.
1. COc1ccccc1N1CCN(CCOc2ccc3c(C)cc(=O)oc3c2C(C)=O)CC1
2. COc1cccc(N2CCN(CCOc3cc(C)cc4oc(=O)cc(C)c34)CC2)c1
3. Cc1cc(OCCCCCN2CCN(c3ccccc3Br)CC2)c2c(C)cc(=O)oc2c1
4. Cc1cc(OCCCCCN2CCN(c3ccccc3F)CC2)c2c(C)cc(=O)oc2c1
5. Cc1ccc(C)c(N2CCN(CCCCCOc3cc(C)cc4oc(=O)cc(C)c34)CC2)c1
6. COc1cccc(N2CCN(CCOc3ccc4c(C)cc(=O)oc4c3C(C)=O)CC2)c1

Result:
1. 157 to 159 °C
2. 124 to 125 °C
3. 143 to 144 °C
4. 106 to 108 °C
5. 132 to 134 °C
6. 122 to 124 °C

Batch of 6 compounds: report melting point for each.
1. COc1cccc(N2CCN(CCCCCOc3c(C(C)=O)c(C)cc4oc(=O)cc(C)c34)CC2)c1
2. Cc1cc(OCCCCCBr)c2c(C)cc(=O)oc2c1
3. CC(=O)c1c(OCCCCCN2CCN(c3cccc(F)c3)CC2)ccc2c(C)cc(=O)oc12
4. CC(=O)c1c(OCCCCCN2CCN(c3ccccc3F)CC2)ccc2c(C)cc(=O)oc12
5. Cc1cc(OCCCCCN2CCN(c3ccccc3C#N)CC2)c2c(C)cc(=O)oc2c1
6. Cc1cc(OCCN2CCN(c3cccc(F)c3)CC2)c2c(C)cc(=O)oc2c1

Result:
86 to 88 °C
99 to 101 °C
117 to 119 °C
95 to 97 °C
148 to 149 °C
120 to 122 °C
